test-protocol: In vitro metabolic stability in rat-liver microsomes
particulars: male, Sprague-Dawley, rat, microsomes, pH 7.4
quantity-name: half-life at 5 µM

# smiles-data, quantity-name, obs-value
records = [
    ("Cc1cc(NC(=O)c2c(O)nn3ccccc23)c(C(C)C)cc1Oc1ccccc1", "half-life at 5 µM", "~2 h"),
]

====

test-system: recombinant hDHODH (Homo sapiens, UniProt Q02127)
Construct: plasmid construct pFN2A–truncated hDHODH (31-395); made in house; host or cells: E. coli BL21DE3-Gold (DE3)
Sequence (Q02127 31-395): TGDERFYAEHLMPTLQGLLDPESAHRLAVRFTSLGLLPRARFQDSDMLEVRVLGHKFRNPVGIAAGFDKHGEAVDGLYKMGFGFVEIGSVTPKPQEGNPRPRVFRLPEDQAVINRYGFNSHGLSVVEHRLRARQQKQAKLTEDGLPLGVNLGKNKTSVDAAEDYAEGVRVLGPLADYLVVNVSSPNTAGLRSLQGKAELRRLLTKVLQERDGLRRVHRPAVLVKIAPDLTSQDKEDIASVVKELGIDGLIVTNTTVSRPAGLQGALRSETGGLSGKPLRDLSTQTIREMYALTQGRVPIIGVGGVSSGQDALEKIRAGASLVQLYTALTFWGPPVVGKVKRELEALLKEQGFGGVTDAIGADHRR
Assay type: biochemical
particulars: recombinant hDHODH, in vitro assay; read-out: hDHODH IC50 ± SE
pIC50: −log10 of the molar value.
Overview of recorded pIC50 for various compounds

# smiles-data, test-system, pIC50
records = [
    ("O=C(Nc1ccc2c(c1)ncn2-c1ccccc1)c1c(O)nn2ccccc12", "recombinant hDHODH (Homo sapiens, UniProt Q02127)", "< 5.00"),
    ("O=C(Nc1ccc(Oc2cccc(C(F)(F)F)c2)cn1)c1c(O)nn2ccccc12", "recombinant hDHODH (Homo sapiens, UniProt Q02127)", "< 5.00"),
    ("Cc1cc(NC(=O)c2c(O)nn3ccccc23)c(OC2CCC2)cc1Oc1ccccc1", "recombinant hDHODH (Homo sapiens, UniProt Q02127)", "< 5.00"),
]
